Listing of recorded IFN-γ, PBL + Cos7/A11 minigene transfectant by entry.
- targetOrTestSystem: HLA-A11 on COS7/A11 cells expressing the KRAS G12D minigene (23-mer SEQ ID NO: 119) (human, UniProt A*11:01)
- assayText: cell-based or functional assay
endpointName: IFN-γ, PBL + Cos7/A11 minigene transfectant (pg/mL)

binder	assayValue
TRAV19*01 + TRBV4*01 TCR chain pair (TCR, V domains shown) V domain 1: GQQVKQSSPSLTVQEGGILILNCDYENDMFDYFAWYKKYPDNSPTLLISVRSNVDKREDGRFTVFLNKSGKHFSLHITASQPEDTAVYLCAAGDSGGSNYKLTFGKGTLLTVTP V domain 2: ETAVFQTPNYHVTQVGNEVSFNCKQTLGHDTMYWYKQDSKKLLKIMFSYNNKQLIVNETVPRRFSPQSSDKAHLNLRIKSVEPEDSAVYLCASSRDWGPAEQFFGPGTRLTVLE	27
TRAV3-3*01 + TRBV13-1*02 TCR chain pair (TCR, V domains shown) V domain 1: GEQVEQRPPHLSVREGDSAVITCTYTDPNSYYFFWYKQEPGASLQLLMKVFSSTEINEGQGFTVLLNKKDKRLSLNLTAAHPGDSAAYFCAVSGGTNSAGNKLTFGIGTRVLVRP V domain 2: EAAVTQSPRNKVTVTGGNVTLSCRQTNSHNYMYWYRQDTGHGLRLIHYSYGAGNLQIGDVPDGYKATRTTQEDFFLLLELASPSQTSLYFCASASWGGYAEQFFGPGTRLTVLE	56
TRAV3-3*01/TRBV4*01 murine anti-KRAS G12V TCR (SEQ ID NOs: 133 and 134) (TCR, V domains shown) V domain 1: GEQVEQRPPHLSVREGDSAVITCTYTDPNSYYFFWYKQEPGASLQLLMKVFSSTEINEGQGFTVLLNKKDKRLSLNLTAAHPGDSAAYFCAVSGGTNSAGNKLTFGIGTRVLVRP V domain 2: ETAVFQTPNYHVTQVGNEVSFNCKQTLGHDTMYWYKQDSKKLLKIMFSYNNKQLIVNETVPRRFSPQSSDKAHLNLRIKSVEPEDSAVYLCASSRDWGPAEQFFGPGTRLTVLE	38
TRAV19*01/TRBV13-1*02 murine anti-KRAS G12V TCR (SEQ ID NOs: 145 and 146) (TCR, V domains shown) V domain 1: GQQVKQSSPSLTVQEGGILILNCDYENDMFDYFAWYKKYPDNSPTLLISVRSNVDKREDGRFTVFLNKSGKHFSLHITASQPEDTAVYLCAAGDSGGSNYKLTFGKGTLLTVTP V domain 2: EAAVTQSPRNKVTVTGGNVTLSCRQTNSHNYMYWYRQDTGHGLRLIHYSYGAGNLQIGDVPDGYKATRTTQEDFFLLLELASPSQTSLYFCASASWGGYAEQFFGPGTRLTVLE	81
